System under test: PIK3CD (Human) (UniProt O00329)
Sequence (O00329 whole entry, looked up): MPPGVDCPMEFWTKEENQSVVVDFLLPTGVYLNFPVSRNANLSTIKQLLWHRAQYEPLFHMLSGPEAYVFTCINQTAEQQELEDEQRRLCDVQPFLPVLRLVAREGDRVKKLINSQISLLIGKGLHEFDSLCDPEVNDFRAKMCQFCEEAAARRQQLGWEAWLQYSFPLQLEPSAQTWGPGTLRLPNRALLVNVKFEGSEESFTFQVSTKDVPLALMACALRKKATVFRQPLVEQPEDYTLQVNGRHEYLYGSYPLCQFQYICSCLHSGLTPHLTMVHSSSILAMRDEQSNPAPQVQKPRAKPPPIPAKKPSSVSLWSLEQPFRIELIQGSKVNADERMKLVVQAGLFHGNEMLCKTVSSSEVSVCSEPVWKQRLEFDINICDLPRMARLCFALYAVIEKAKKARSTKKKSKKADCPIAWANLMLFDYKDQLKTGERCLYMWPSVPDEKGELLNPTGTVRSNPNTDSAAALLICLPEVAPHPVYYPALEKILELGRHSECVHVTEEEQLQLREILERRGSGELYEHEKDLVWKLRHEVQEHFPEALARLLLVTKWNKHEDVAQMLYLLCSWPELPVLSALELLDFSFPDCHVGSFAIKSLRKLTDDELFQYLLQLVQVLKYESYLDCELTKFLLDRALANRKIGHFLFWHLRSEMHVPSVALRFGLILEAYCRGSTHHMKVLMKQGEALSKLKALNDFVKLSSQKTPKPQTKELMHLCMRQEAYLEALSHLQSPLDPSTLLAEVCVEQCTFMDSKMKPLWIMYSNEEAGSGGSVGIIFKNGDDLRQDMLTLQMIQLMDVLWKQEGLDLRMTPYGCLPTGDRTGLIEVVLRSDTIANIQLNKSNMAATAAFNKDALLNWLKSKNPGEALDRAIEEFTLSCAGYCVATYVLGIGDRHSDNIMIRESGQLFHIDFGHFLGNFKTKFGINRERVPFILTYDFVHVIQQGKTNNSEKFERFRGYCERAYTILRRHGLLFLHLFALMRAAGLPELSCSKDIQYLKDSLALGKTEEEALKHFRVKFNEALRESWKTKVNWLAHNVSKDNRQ
Measurement notes: Assessment of PIK3CD Kinase Activity
Measured quantity: IC50

Look over these answered cases.
# Smiles notation, IC50
data = [
    ("C[C@H](Nc1ncnc2scnc12)c1cc2cccc(C(F)(F)F)c2c(=O)n1-c1ccccc1", "< 100 nM"),
    ("C[C@H](Nc1ncnc2[nH]cc(C(N)=O)c12)c1cc2cccc(C(F)(F)F)c2c(=O)n1-c1ccccc1", "< 100 nM"),
    ("C[C@H](Nc1ncnc2scnc12)c1cc2cccc(C(F)(F)F)c2c(=O)n1-c1cccc(F)c1", "< 100 nM"),
]

INPUT: Indicate the recorded IC50 value for this compound: C[C@H](Nc1ncnc2cccnc12)c1cc2cc(F)ccc2c(=O)n1-c1ccccc1
OUTPUT: 100 to 1000 nM

INPUT: Indicate the recorded IC50 value for this compound: C[C@H](Nc1ncnc2cccnc12)c1cc2cccc(Cl)c2c(=O)n1-c1cccc(F)c1
OUTPUT: < 100 nM

INPUT: Indicate the recorded IC50 value for this compound: C[C@H](Nc1ncnc2cccnc12)c1cc2cccc(Cl)c2c(=O)n1C1CC1
OUTPUT: < 100 nM

INPUT: Indicate the recorded IC50 value for this compound: Cc1nn(C)cc1-c1cccc2cc([C@H](C)Nc3ncnc4cccnc34)n(-c3ccccc3)c(=O)c12
OUTPUT: < 100 nM

INPUT: Indicate the recorded IC50 value for this compound: C[C@H](Nc1nc(O)nc2[nH]cnc12)c1cc2cccc(C(F)(F)F)c2c(=O)n1-c1cccc(F)c1
OUTPUT: > 10000 nM

INPUT: Indicate the recorded IC50 value for this compound: COc1ncc(-c2cccc3cc([C@H](C)Nc4nc(N)nc5cccnc45)n(-c4cccc(F)c4)c(=O)c23)cn1
OUTPUT: < 100 nM

INPUT: Indicate the recorded IC50 value for this compound: C[C@H](Nc1nc(N)nc2cccnc12)c1cc2cccc(C(F)(F)F)c2c(=O)n1-c1ccccc1
OUTPUT: < 100 nM

INPUT: Indicate the recorded IC50 value for this compound: COc1cncc(-c2cccc3cc([C@H](C)Nc4nc(N)nc5cccnc45)n(-c4ccccc4)c(=O)c23)c1
OUTPUT: < 100 nM

INPUT: Indicate the recorded IC50 value for this compound: C[C@H](Nc1c(C#N)cnc2cccnc12)c1cc2cccc(Cl)c2c(=O)n1-c1cccc(F)c1
OUTPUT: > 10000 nM

====

System under test: UniProt:P42336
Sequence (P42336 whole entry, looked up): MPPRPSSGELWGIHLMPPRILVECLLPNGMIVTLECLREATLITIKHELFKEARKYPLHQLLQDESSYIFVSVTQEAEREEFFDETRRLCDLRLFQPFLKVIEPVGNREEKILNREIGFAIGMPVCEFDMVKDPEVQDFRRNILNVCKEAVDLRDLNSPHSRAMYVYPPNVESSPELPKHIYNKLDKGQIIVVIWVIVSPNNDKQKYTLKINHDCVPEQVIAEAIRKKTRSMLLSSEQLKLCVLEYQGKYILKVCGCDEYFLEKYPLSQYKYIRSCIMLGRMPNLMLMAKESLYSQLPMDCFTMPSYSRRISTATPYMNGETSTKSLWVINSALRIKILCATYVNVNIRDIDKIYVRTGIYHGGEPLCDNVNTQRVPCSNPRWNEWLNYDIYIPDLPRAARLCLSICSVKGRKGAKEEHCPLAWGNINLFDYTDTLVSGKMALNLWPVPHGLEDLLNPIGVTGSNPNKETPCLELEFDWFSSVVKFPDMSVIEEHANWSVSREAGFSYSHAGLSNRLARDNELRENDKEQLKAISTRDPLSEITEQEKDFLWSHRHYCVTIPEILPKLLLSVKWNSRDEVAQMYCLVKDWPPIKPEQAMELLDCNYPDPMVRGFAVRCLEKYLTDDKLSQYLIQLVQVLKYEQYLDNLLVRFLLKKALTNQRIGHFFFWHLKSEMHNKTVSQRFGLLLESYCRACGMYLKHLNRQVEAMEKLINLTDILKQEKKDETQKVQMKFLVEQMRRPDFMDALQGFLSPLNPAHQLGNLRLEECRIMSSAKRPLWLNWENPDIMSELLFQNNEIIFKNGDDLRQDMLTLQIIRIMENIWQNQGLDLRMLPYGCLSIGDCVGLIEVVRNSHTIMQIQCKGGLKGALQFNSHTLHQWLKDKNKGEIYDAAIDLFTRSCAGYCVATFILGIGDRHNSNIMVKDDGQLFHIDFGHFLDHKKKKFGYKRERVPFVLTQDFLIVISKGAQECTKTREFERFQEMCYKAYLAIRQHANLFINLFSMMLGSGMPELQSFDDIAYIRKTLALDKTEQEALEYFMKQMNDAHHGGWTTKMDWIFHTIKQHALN
Measurement notes: Assessment of PIK3CA Kinase Activity
Readings of IC50 for the listed compounds

# Smiles notation, Observed measurement
records = [
    ("C[C@H](Nc1ncnc2cccnc12)c1cc2scc(C(F)(F)F)c2c(=O)n1-c1ccccc1", "> 10 µM"),
    ("C[C@H](Nc1ncnc2cccnc12)c1cc2cccc(-c3cnc(N)nc3)c2c(=O)n1-c1ccccc1", "0.1 to 1 µM"),
]

INPUT: Identify measured IC50 obtained with UniProt:P42336 for COc1ncc(-c2cccc3cc([C@H](C)Nc4ncnc5cccnc45)n(-c4ccccc4)c(=O)c23)cn1 .
OUTPUT: > 10 µM

INPUT: Identify measured IC50 obtained with UniProt:P42336 for C[C@H](Nc1cc(Cl)nn2ccnc12)c1cc2cccc(C(F)(F)F)c2c(=O)n1-c1cccc(F)c1 .
OUTPUT: > 10 µM

====

Readings of pIC50 for the listed compounds
System under test: PIK3CG (human)
Measurement notes: Assessment of PIK3CG Kinase Activity
pIC50: −log10 of the molar value.

# Smiles notation, pIC50
rows = [
    ("C[C@H](Nc1ccnn2ccnc12)c1cc2cccc(Cl)c2c(=O)n1C1CC1", "6.00 to 7.00"),
]

INPUT: Identify measured pIC50 obtained with PIK3CG (human) for Cc1ncc(-c2cccc3nc([C@H](C)Nc4nc(N)nc5cccnc45)n(-c4ccccc4)c(=O)c23)cn1 .
OUTPUT: > 7.00

INPUT: Identify measured pIC50 obtained with PIK3CG (human) for C[C@H](Nc1cc(Cl)ncc1C(N)=O)c1cc2cccc(Cl)c2c(=O)n1-c1ccccc1 .
OUTPUT: 6.00 to 7.00

INPUT: Identify measured pIC50 obtained with PIK3CG (human) for C[C@H](Nc1ccnc2ccnn12)c1cc2cccc(-c3cnn(C)c3)c2c(=O)n1-c1cccc(F)c1 .
OUTPUT: 6.00 to 7.00

INPUT: Identify measured pIC50 obtained with PIK3CG (human) for COc1ncc(-c2cccc3cc([C@H](C)Nc4nc(N)nc5cccnc45)n(-c4ccccc4)c(=O)c23)cn1 .
OUTPUT: > 7.00

INPUT: Identify measured pIC50 obtained with PIK3CG (human) for C[C@H](Nc1nc(N)nc2cccnc12)c1cc2cccc(-c3ccnnc3)c2c(=O)n1-c1ccccc1 .
OUTPUT: > 7.00

INPUT: Identify measured pIC50 obtained with PIK3CG (human) for C[C@H](Nc1ncnn2ccnc12)c1cc2cccc(Cl)c2c(=O)n1-c1ccccc1 .
OUTPUT: > 7.00

INPUT: Identify measured pIC50 obtained with PIK3CG (human) for C[C@H](Nc1nc(N)nc2cccnc12)c1cc2cccc(-c3cncnc3)c2c(=O)n1-c1ccccc1 .
OUTPUT: > 7.00

====

Readings of IC50 for the listed molecules
System under test: PIK3CG (human) (UniProt P48736)
Sequence (P48736 whole entry, looked up): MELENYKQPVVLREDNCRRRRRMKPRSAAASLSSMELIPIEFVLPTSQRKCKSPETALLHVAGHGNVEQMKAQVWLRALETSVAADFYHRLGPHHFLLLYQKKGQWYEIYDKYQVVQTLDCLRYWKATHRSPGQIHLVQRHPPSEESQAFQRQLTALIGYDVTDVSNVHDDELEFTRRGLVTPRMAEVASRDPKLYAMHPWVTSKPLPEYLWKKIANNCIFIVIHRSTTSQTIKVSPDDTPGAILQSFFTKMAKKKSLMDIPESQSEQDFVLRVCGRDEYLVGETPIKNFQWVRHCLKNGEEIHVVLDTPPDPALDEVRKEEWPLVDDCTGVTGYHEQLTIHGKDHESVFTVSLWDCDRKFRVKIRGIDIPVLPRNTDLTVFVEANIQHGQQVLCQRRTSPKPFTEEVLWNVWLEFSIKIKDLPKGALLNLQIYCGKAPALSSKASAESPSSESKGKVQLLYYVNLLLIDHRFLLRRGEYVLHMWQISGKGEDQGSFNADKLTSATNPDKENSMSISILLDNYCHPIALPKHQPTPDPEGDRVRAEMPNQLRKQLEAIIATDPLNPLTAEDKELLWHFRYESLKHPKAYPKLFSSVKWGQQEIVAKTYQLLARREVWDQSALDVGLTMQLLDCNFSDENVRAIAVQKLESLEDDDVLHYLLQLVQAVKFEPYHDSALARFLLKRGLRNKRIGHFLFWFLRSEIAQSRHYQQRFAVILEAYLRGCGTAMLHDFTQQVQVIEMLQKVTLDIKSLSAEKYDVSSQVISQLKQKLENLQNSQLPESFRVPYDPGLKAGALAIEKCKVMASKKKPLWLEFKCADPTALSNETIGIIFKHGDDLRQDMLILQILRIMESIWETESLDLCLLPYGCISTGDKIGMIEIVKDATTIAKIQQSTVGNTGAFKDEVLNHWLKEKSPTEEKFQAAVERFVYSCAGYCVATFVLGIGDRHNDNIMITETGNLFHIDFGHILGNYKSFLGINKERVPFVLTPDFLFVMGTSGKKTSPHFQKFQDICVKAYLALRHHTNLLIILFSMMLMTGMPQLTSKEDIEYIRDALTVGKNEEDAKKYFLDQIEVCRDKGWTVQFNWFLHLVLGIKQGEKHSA
Measurement notes: Assessment of PIK3CG Kinase Activity

# Smiles notation, IC50
records = [
    ("Cc1ncc(-c2cccc3cc([C@H](C)Nc4nc(N)nc5cccnc45)n(-c4ccccc4)c(=O)c23)cn1", "< 100 nM"),
    ("COc1nc(N[C@@H](C)c2cc3cccc(Cl)c3c(=O)n2-c2ccccc2)c2ncccc2n1", "> 10000 nM"),
]

INPUT: Indicate the recorded IC50 value for this molecule: C[C@H](Nc1ncnc2cc(F)ccc12)c1cc2cccc(Cl)c2c(=O)n1-c1ccccc1
OUTPUT: > 10000 nM

====

Readings of pIC50 for the listed compounds
System under test: PIK3CD (Human)
Measurement notes: Assessment of PIK3CD Kinase Activity
pIC50: −log10 of the molar value.

Look over these answered cases.
# Compound, Observed measurement
rows = [
    ("C[C@H](Nc1ccnn2ccnc12)c1cc2cccc(-c3cnn(C)c3)c2c(=O)n1C1CC1", "> 7.00"),
    ("C[C@H](Nc1ncnc2cc(F)c(F)cc12)c1cc2cccc(Cl)c2c(=O)n1-c1ccccc1", "< 5.00"),
    ("C[C@H](Nc1ccnn2ccnc12)c1cc2cccc(C(F)(F)F)c2c(=O)n1-c1ccccc1", "> 7.00"),
    ("C[C@H](Nc1ncnc2cccnc12)c1cc2cccc(-c3cnn(C)c3)c2c(=O)n1-c1cccc(F)c1", "> 7.00"),
    ("C[C@H](Nc1cc(Cl)nn2ccnc12)c1cc2cccc(C(F)(F)F)c2c(=O)n1-c1cccc(F)c1", "6.00 to 7.00"),
    ("C[C@H](Nc1ncc(C(F)(F)F)c(N)n1)c1cc2cccc(Cl)c2c(CCN2CCOCC2)n1", "< 5.00"),
    ("C[C@H](Nc1ccnc2ccnn12)c1cc2cccc(Cl)c2c(=O)n1-c1cccc(F)c1", "> 7.00"),
    ("C[C@H](Nc1ncnn2ccnc12)c1cc2cccc(Cl)c2c(=O)n1-c1cccc(F)c1", "> 7.00"),
    ("C[C@H](Nc1nc(N)nc2cccnc12)c1cc2cccc(Cl)c2c(=O)n1-c1ccc(F)cc1", "> 7.00"),
    ("COc1ccc(CNc2nc(N[C@@H](C)c3cc4cccc(-c5cnc(OC)nc5)c4c(=O)n3-c3ccccc3)c3ncccc3n2)cc1", "6.00 to 7.00"),
]

INPUT: Indicate the recorded pIC50 value for this compound: C[C@H](Nc1ccnc2cccnc12)c1cc2cccc(Cl)c2c(=O)n1-c1ccccc1
OUTPUT: > 7.00

INPUT: Indicate the recorded pIC50 value for this compound: C[C@H](Nc1nc(N)nc2cccnc12)c1cc2cccc(-c3cnn(C)c3)c2c(=O)n1C1CC1
OUTPUT: > 7.00

INPUT: Indicate the recorded pIC50 value for this compound: C[C@H](Nc1nc(N)nc2cccnc12)c1cc2cccc(-c3cnn(C)c3)c2c(=O)n1-c1cccc(F)c1
OUTPUT: > 7.00

INPUT: Indicate the recorded pIC50 value for this compound: C[C@H](Nc1ccnc2scnc12)c1cc2cccc(C(F)(F)F)c2c(=O)n1-c1ccccc1
OUTPUT: > 7.00

INPUT: Indicate the recorded pIC50 value for this compound: C[C@H](Nc1ncnc2[nH]cnc12)c1cc2cccc(C(F)(F)F)c2c(=O)n1-c1cccc(F)c1
OUTPUT: > 7.00

INPUT: Indicate the recorded pIC50 value for this compound: C[C@H](Nc1ncnc2[nH]nc(C#N)c12)c1cc2cccc(Cl)c2c(=O)n1-c1ccccc1
OUTPUT: > 7.00

INPUT: Indicate the recorded pIC50 value for this compound: CNc1nc(N[C@@H](C)c2cc3cccc(NC)c3c(=O)n2-c2ccccc2)c2ncccc2n1
OUTPUT: 6.00 to 7.00

INPUT: Indicate the recorded pIC50 value for this compound: C[C@H](Nc1nc(N)nc2cccnc12)c1cc2cccc(Cl)c2c(=O)n1-c1ccccc1
OUTPUT: > 7.00

INPUT: Indicate the recorded pIC50 value for this compound: Cc1nc2c(N[C@@H](C)c3cc4cccc(C(F)(F)F)c4c(=O)n3-c3ccccc3)ncnc2s1
OUTPUT: < 5.00

INPUT: Indicate the recorded pIC50 value for this compound: Cc1ncc(-c2cccc3cc([C@H](C)Nc4nc(N)nc5cccnc45)n(-c4ccccc4)c(=O)c23)s1
OUTPUT: > 7.00

INPUT: Indicate the recorded pIC50 value for this compound: C[C@H](Nc1nc(N)nc2cccnc12)c1cc2cccc(-c3ccnnc3)c2c(=O)n1-c1ccccc1
OUTPUT: > 7.00

INPUT: Indicate the recorded pIC50 value for this compound: COc1cncc(-c2cccc3cc([C@H](C)Nc4ncnc5cccnc45)n(-c4ccccc4)c(=O)c23)c1
OUTPUT: > 7.00

INPUT: Indicate the recorded pIC50 value for this compound: Cc1cc(-c2cccc3cc([C@H](C)Nc4ncnc5cccnc45)n(-c4ccccc4)c(=O)c23)cnc1C
OUTPUT: > 7.00

Origin of values: the Kinase Knowledgebase extract (Sharma et al. 2016)
